Target: human PDE5 (Homo sapiens, UniProt O76074)
Experiment: Inhibition of PDE5 activity (modified SPA test, human platelet lysate)
Conditions: PDE5-containing human platelet lysate, 0.5 μM cGMP substrate, 37° C.
reported_endpoint: IC50 (nM)
Give your result in nM as a bare value.

Solved entries:
- test_smiles: "COc1cccc(Cc2nc3c(c4c2[nH]c2ccccc24)C(=O)CC(C)(C)C3)c1"
  IC50 / nM: 79.4
- test_smiles: "CC1(C)CC(=O)c2c(nc(Cc3cccc(Br)c3)c3[nH]c4ccccc4c23)C1"
  IC50 / nM: 126
- test_smiles: "CCC(=O)Nc1ccc(Cc2nc3c(c4c2[nH]c2ccccc24)C(=O)CC(C)(C)C3)cc1"
  IC50 / nM: 34.7

Now take the following compound into account.
Q: Given the compound CC(C)c1ccc(Cc2nc3c(c4c2[nH]c2ccccc24)C(=O)CC(C)(C)C3)cc1 , what is its reported IC50?
Result: 347

###

reported_endpoint: melting point

Solved entries:
- compound: "CC1(C)Cc2nc(Cc3ccc(F)cc3)c3[nH]c4ccccc4c3c2C(O)C1 (centres unmarked) [Example 64]"
  readout_value: "187 to 189 °C"
- compound: "O=C1CCCc2nc(Cc3ccc4c(c3)OCO4)c3[nH]c4ccccc4c3c21 [Example 18]"
  readout_value: "194 to 197 °C"
- compound: "CC1(C)Cc2nc(Cc3ccc(F)c(F)c3)c3[nH]c4ccccc4c3c2C(O)C1 (centres unmarked) [Example 66]"
  readout_value: "121 to 128 °C"
- compound: "CC1(C)Cc2nc(Cc3ccc(O)c(F)c3)c3[nH]c4ccccc4c3c2[C@H](O)C1 [Example 87]"
  readout_value: "232 to 234 °C"

Q: Given the compound OC1CCCc2nc(Cc3ccccc3)c3[nH]c4ccccc4c3c21 (centres unmarked) [Example 49] , what is its reported melting point?
Result: 211 °C

###

reported_endpoint: melting point

- compound: "CC1(C)Cc2nc(Cc3cccc(F)c3)c3[nH]c4ccccc4c3c2[C@@H](O)C1 [Example 93]"
  melting point: "123 to 126 °C"
- compound: "CC1(C)CC(=O)c2c(nc(Cc3cccc(Br)c3)c3[nH]c4ccccc4c23)C1 [Example 21]"
  melting point: "215 to 219 °C"

Q: Given the compound CC1(C)Cc2nc(Cc3ccc(O)cc3)c3[nH]c4ccccc4c3c2C(O)C1 (stereo not drawn) [Example 51] , what is its reported melting point?
Result: 212 °C

Q: Given the compound CCOc1ccc(Cc2nc3c(c4c2[nH]c2ccccc24)C(O)CC(C)(C)C3)cc1 (stereo not drawn) [Example 55] , what is its reported melting point?
Result: 182 to 184 °C

Q: Given the compound CC1(C)CC(=O)c2c(nc(Cc3ccc(N)cc3)c3[nH]c4ccccc4c23)C1 [Example 40] , what is its reported melting point?
Result: 123 to 124 °C

Q: Given the compound COc1c(F)cc(Cc2nc3c(c4c2[nH]c2ccccc24)C(=O)CC(C)(C)C3)cc1F [Example 32] , what is its reported melting point?
Result: 195 to 196 °C

Q: Given the compound COc1ccc(Cc2nc3c(c4c2[nH]c2ccccc24)C(O)CCC3)cc1 (stereo not drawn) [Example 48] , what is its reported melting point?
Result: 204 °C

###

Measured melting point values are reported for all entries that follow.

Solved entries:
- compound: "CCOc1ccc(Cc2nc3c(c4c2[nH]c2ccccc24)C(=O)CC(C)(C)C3)cc1"
  melting point: "179 to 181 °C"
- compound: "CC1(C)Cc2nc(Cc3cccc(Br)c3)c3[nH]c4ccccc4c3c2C(O)C1 (stereo not shown)"
  melting point: "118 to 125 °C"
- compound: "COc1ccc(Cc2nc3c(c4c2[nH]c2ccccc24)[C@H](O)CC(C)(C)C3)cc1F"
  melting point: "164 to 166 °C"

Now take the following compound into account.
Q: Given the compound CC(=O)Nc1ccc(Cc2nc3c(c4c2[nH]c2ccccc24)C(O)CC(C)(C)C3)cc1 (stereo not shown) , what is its reported melting point?
Result: 195 to 197 °C

###

Biological target: UniProt O76074
Test: Inhibition of PDE5 activity (modified SPA test, human platelet lysate)
Settings: PDE5-containing human platelet lysate, 0.5 μM cGMP substrate, 37° C.
Counter-ions that a name gives are not always drawn.
Lab note - cut at 10 nM for IC50: 1 if strictly below, 0 if not.

Reference set (3 entries):
- compound: "Brc1ccc(Cc2nc3c(c4c2[nH]c2ccccc24)CCCC3)cc1 [Example 9, HCl salt]"
  class_assignment: 0
- compound: "COc1ccc(Cc2nc3c(c4c2[nH]c2ccccc24)C(O)CC(C)(C)C3)c(F)c1 (stereo not drawn)"
  class_assignment: 1
- compound: "CCOc1ccc(Cc2nc3c(c4c2[nH]c2ccccc24)C(=O)CC(C)(C)C3)cc1"
  class_assignment: 0

Q: Threshold test, IC50 < 10 nM: COc1ccc(Cc2nc3c(c4c2[nH]c2ccccc24)[C@H](O)CC(C)(C)C3)cc1
Result: 0

Q: Threshold test, IC50 < 10 nM: COc1c(F)cc(Cc2nc3c(c4c2[nH]c2ccccc24)C(O)CC(C)(C)C3)cc1F (stereo not drawn)
Result: 1

Q: Threshold test, IC50 < 10 nM: CC1(C)Cc2nc(Cc3ccc(N)cc3)c3[nH]c4ccccc4c3c2C(O)C1 (stereo not drawn)
Result: 0

###

Molecular target: human PDE5 (Homo sapiens, UniProt O76074)
Assay: Inhibition of PDE5 activity (modified SPA test, human platelet lysate)
Conditions: PDE5-containing human platelet lysate, 0.5 μM cGMP substrate, 37° C.
reported_endpoint: IC50 (nM)
Give your result in nM as a bare value.

- compound: "COc1ccc(Cc2nc3c(c4c2[nH]c2ccccc24)C(O)CC(C)(C)C3)c(F)c1F (stereo not shown)"
  IC50 (nM): 0.324
- compound: "COc1ccc(Cc2nc3c(c4c2[nH]c2ccccc24)C(=O)CC(C)(C)C3)cc1"
  IC50 (nM): 3.02
- compound: "CC(C)c1ccc(Cc2nc3c(c4c2[nH]c2ccccc24)C(O)CC(C)(C)C3)cc1 (stereo not shown)"
  IC50 (nM): 148
- compound: "COc1ccc(Cc2nc3c(c4c2[nH]c2ccccc24)CCC(C)(C)C3)cc1"
  IC50 (nM): 6.31

Q: Given the compound CCC(=O)Nc1ccc(Cc2nc3c(c4c2[nH]c2ccccc24)C(O)CC(C)(C)C3)cc1 (stereo not shown) , what is its reported IC50?
Result: 70.8

Q: Given the compound Nc1cccc(Cc2nc3c(c4c2[nH]c2ccccc24)C(=O)CCC3)c1 , what is its reported IC50?
Result: 11.5

Q: Given the compound CC(=O)Nc1ccc(Cc2nc3c(c4c2[nH]c2ccccc24)C(O)CCC3)cc1 (stereo not shown) , what is its reported IC50?
Result: 302

Q: Given the compound CC1(C)CC(=O)c2c(nc(Cc3cccc([N+](=O)[O-])c3)c3[nH]c4ccccc4c23)C1 , what is its reported IC50?
Result: 135

###

Measured melting point values are reported for all entries that follow.
Counter-ions that a name gives are not always drawn.

Solved entries:
- molecule: "COc1ccc(Cc2nc3c(c4c2[nH]c2ccccc24)C(=O)CC(C)(C)C3)cc1Cl"
  readout_value: "209 to 211 °C"
- molecule: "COc1ccc(Cc2nc3c(c4c2[nH]c2ccccc24)C(=O)CC(C)(C)C3)c(F)c1"
  readout_value: "138 to 140 °C"
- molecule: "COc1ccc(Cc2nc3c(c4c2[nH]c2ccccc24)C(=O)CC(C)C3)cc1 (centres unmarked)"
  readout_value: "102 °C"
- molecule: "CC1(C)CC(=O)c2c(nc(Cc3ccc(Br)cc3)c3[nH]c4ccccc4c23)C1 (as salt: HCl)"
  readout_value: "244 to 245 °C"
- molecule: "COc1c(F)cc(Cc2nc3c(c4c2[nH]c2ccccc24)C(O)CC(C)(C)C3)cc1F (centres unmarked)"
  readout_value: "131 to 133 °C"
- molecule: "CC1(C)Cc2nc(Cc3cccc(N)c3)c3[nH]c4ccccc4c3c2C(O)C1 (centres unmarked)"
  readout_value: "225 to 227 °C"
- molecule: "CC1(C)CC(=O)c2c(nc(Cc3cccc(N)c3)c3[nH]c4ccccc4c23)C1"
  readout_value: "232 to 234 °C"
- molecule: "CC1(C)Cc2nc(Cc3cccc(Cl)c3)c3[nH]c4ccccc4c3c2[C@@H](O)C1"
  readout_value: "124 to 127 °C"
- molecule: "CC1(C)CC(=O)c2c(nc(Cc3ccc([N+](=O)[O-])cc3)c3[nH]c4ccccc4c23)C1 (as salt: HCl) [Example 8]"
  readout_value: "214 to 215 °C"
- molecule: "CC(=O)Nc1ccc(Cc2nc3c(c4c2[nH]c2ccccc24)C(=O)CC(C)(C)C3)cc1"
  readout_value: "153 to 154 °C"

Now take the following molecule into account.
Q: Given the molecule COc1ccc(Cc2nc3c(c4c2[nH]c2ccccc24)C(O)CCC3)cc1F (centres unmarked) , what is its reported melting point?
Result: 118 to 120 °C
